- SYSTEM UNDER TEST: chimeric receptor comprising the extra-cellular portion of the human EPO receptor to the intra-cellular portion of the human GCSF receptor
- Sequence (P19235 25-250 limits assumed, change not shown): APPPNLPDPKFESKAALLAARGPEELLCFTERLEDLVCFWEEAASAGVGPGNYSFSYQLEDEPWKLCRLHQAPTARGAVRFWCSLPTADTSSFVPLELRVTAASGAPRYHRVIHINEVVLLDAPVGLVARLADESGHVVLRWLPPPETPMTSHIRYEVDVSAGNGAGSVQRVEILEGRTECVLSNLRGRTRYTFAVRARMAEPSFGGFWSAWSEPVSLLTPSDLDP
- ASSAY PROTOCOL: Reporter assay (Baf3/EpoR/GCSFR fos/lux luciferase)
- Format: cell-based
- SETUP CONDITIONS: peptide monomers; Baf3/EpoR/GCSFR fos/lux cells, 4 h
Where no end group is shown, it is not given here. [ ]: non-standard residue; d: D form. 1Nal = N[C@@H](Cc1cccc2ccccc12)C(=O)O
ASSAY ENDPOINT: EC50 (nM)
Report only the number, with the unit nM understood.

Return value of EC50 for input GGLYACHMGPMT(1-nal)VCQPLRG (GGLYACHMGPMT[1Nal]VCQPLRG; cysteine pairing not given here) [AF31748] , no commentary. 40

API: the following record is the query input.
For GGLYACHMGPMTVCQPLRG [AF31552] , write its EC50. 100
